Source of measurements: patent US20230227437A1

target_or_system: hIL-17A (Homo sapiens)
Sequence (Q16552 20-155 limits assumed): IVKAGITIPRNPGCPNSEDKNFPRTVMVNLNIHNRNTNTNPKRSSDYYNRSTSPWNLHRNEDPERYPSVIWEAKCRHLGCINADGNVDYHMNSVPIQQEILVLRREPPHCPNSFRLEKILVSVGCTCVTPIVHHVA
measurement_protocol: Inhibition of hIL-17A-induced chemokine GROα/CXCL1 production in HT-29 cell
With a cut-off of 700 nM, any IC50 strictly below it is called 1; any IC50 meeting it or above is called -1.

Solved entries:
Strictly below 700 nM in IC50? Cc1n[nH]c(C)c1-c1ncc(NC(=O)[C@@H](NC(=O)c2ccnn2C(C)C)C2c3cc(F)cc(F)c3OCC23CC3)cc1F (stereo partly shown)
-1

API: query returns whether the compound falls strictly under 700 nM in IC50. Query: CCc1nonc1C(=O)N[C@H](C(=O)Nc1ccc(-c2c(C)n[nH]c2C)nc1)C1c2cc(F)ccc2OCC12CC2 (stereo partly shown)
-1

Threshold test, IC50 < 700 nM: Cc1n[nH]c(C)c1-c1ccc(NC(=O)[C@@H](NC(=O)c2ccnn2C)C2c3ccc(F)cc3OCC23CC3)cc1 (stereo partly shown)
1

# strict comparison: is reported IC50 < 700 nM? input = CCc1nocc1C(=O)N[C@H](C(=O)Nc1ccc(-c2c(C)n[nH]c2C)cc1)C1c2ccc(F)cc2OCC12CC2 (stereo partly shown)
1

hey, is IC50 for Cc1nonc1C(=O)N[C@H](C(=O)Nc1ccc(-c2c(C)n[nH]c2C)cc1)C1c2cc(F)cc(F)c2OCC12CC2 (stereo partly shown) lower than 700 nM or not?
-1

Please indicate whether the reported IC50 of Cc1n[nH]c(C)c1-c1ccc(NC(=O)[C@@H](NC(=O)OC2CC2)C2c3cc(F)c(F)cc3OCC23CC3)cc1 (stereo partly shown) is strictly below 700 nM.
1

---
Consider the compound Cc1n[nH]c(C)c1-c1ncc(NC(=O)[C@@H](NC(=O)c2nonc2C(C)C)C2c3ccc(F)cc3OCC23CC3)cc1F (stereo partly shown) . Is its IC50 strictly less than 700 nM?
-1

In the record for Cc1n[nH]c(C)c1-c1ccc(NC(=O)[C@@H](NC(=O)c2nonc2C2CC2)C2c3cc(F)cc(F)c3OCC23CC3)cc1 (stereo partly shown) , is IC50 less than 700 nM?
-1

# check: IC50 < 700 nM for Cc1n[nH]c(C)c1-c1ccc(NC(=O)[C@@H](NC(=O)c2ccnn2C)C2c3cc(F)ccc3CC23CC3)cc1 (stereo partly shown)
1

Identify whether the compound Cc1n[nH]c(C)c1-c1ccc(NC(=O)[C@@H](NC(=O)c2ccnn2C(C)C)C2c3ccc(F)c(F)c3OCC23CC3)cn1 (stereo partly shown) records IC50 below 700 nM.
1

Given Cc1n[nH]c(C)c1-c1ncc(NC(=O)[C@@H](NC(=O)c2ccnn2C(C)C)C2c3c(F)cc(F)cc3OCC23CC3)cc1F (stereo partly shown) , is recorded IC50 strictly lower than 700 nM?
1

Hi there! Is IC50 for Cc1n[nH]c(C)c1-c1ccc(NC(=O)[C@@H](NC(=O)c2ccnn2C(C)C)C2c3ccc(F)cc3OCC23CC3)cn1 (stereo partly shown) below 700 nM, do you know?
1
